# Test system: affinity purified β2GPI-dependent antiphospholipid antibody
# assay_remarks: Direct binding ELISA, nickel chelate-coated wells charged with recombinant β2GPI proteins (no cardiolipin)
# Parameters: species or system human
# conditions_used: Ab 6644; O.D. at 550 nm
Each entry below lists one item and its recorded Maximum O.D. value.
The answer should be written as a number, with no unit following it.

Prompt line: I would be grateful if you could share the reported Maximum O.D. for recombinant β2GPI domain 5 with GlyHis6 (----5) (protein) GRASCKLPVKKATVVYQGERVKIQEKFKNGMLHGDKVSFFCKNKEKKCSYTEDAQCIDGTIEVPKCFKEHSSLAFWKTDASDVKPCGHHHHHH .
Response line: 0.017

Prompt line: What does the data say about its Maximum O.D.? Entry: 1----: recombinant β2GPI protein with domain 1 only (SEQ ID NO:4 region), His6 tail (protein) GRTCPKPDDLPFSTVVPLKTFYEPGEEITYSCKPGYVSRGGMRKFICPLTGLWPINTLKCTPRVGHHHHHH
Response line: 0.493

Prompt line: Fill blank: measured Maximum O.D. of the molecule 1234-: recombinant β2GPI deletion mutant with domains 1, 2, 3, 4 (protein) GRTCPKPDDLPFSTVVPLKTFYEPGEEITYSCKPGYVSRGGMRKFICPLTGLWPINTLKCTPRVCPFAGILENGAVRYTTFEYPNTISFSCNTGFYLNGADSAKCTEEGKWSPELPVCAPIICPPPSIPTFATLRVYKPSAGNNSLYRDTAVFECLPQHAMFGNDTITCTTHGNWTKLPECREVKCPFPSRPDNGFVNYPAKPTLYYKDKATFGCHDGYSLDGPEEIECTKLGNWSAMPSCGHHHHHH is ____.
Response line: 0.768

Ref: patent US6858210B1
